# STUDY SYSTEM: Sentrin-specific protease 7 (Homo sapiens);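 also: Luminescence-based dose-response confirmation of ultra-high-throughput screening hits, measuring inhibition of SENP7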
# Sequence (Q9BQF6 whole entry): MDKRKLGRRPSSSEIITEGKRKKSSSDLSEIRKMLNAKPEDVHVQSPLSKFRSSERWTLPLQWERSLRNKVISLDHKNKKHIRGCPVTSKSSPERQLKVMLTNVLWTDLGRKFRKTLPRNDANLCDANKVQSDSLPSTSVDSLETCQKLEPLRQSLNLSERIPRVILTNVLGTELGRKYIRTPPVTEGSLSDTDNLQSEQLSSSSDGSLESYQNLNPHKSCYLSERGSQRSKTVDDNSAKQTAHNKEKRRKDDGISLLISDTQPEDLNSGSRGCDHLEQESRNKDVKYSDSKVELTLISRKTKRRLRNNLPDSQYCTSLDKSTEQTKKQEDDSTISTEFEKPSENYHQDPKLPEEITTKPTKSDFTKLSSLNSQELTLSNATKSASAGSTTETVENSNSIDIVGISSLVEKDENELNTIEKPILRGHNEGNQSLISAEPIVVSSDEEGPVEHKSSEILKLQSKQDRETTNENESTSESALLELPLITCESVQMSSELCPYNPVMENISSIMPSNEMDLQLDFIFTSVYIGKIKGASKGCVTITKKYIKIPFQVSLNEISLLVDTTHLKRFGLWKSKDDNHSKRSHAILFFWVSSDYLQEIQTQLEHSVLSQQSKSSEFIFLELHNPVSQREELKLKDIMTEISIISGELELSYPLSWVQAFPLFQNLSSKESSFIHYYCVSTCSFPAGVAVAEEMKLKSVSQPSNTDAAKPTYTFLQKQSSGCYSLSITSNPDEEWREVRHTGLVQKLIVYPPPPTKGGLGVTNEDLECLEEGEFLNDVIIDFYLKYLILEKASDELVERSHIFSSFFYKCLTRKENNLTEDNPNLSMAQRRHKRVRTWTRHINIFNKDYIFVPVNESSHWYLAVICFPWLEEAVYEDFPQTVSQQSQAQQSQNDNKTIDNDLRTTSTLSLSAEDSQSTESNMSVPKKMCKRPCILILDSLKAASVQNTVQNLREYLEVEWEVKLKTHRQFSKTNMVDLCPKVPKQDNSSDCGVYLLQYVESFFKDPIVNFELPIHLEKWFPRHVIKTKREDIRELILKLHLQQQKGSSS
# Assay type: functional
Active and inactive are the calls of the source.
METRIC NAME: IC50

1. COc1ccc(COc2ccc3c(C)cc(=O)oc3c2)cc1 = 9.04 µM (active)
2. CCOc1ccc(/C=N/NC(=O)c2ccc(Cn3cc(Br)cn3)o2)cc1 = 13.2 µM (active)
3. COc1ccc(C(=O)Nc2ccc3ccccc3n2)c(OC)c1OC = 2.37 µM (active)
4. O=C(CCCN1C(=O)/C(=C/c2cccc(Br)c2)SC1=S)N1CCOCC1 = 45.6 µM (active)

* * *

# STUDY SYSTEM: UniProt:P10520
# Sequence (P10520 whole entry): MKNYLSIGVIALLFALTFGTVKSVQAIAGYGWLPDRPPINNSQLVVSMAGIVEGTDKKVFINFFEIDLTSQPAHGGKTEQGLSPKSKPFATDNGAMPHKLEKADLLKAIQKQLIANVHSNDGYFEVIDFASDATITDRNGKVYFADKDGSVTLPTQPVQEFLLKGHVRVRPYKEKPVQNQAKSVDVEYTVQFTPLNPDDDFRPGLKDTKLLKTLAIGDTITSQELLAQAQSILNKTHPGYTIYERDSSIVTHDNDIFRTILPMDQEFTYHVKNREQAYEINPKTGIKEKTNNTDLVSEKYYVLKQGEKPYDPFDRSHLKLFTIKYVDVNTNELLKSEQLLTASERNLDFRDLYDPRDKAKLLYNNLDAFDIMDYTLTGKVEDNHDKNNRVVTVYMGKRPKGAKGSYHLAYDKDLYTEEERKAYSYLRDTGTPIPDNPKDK
# PROTOCOL TEXT: viability-normalized secreted streptokinase activity reduction – plasminogen activation absorbance, OD405, dose response (AID 1914);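 also: secreted streptokinase activity via plasminogen activation per viability signal from cell pellet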
# Assay type: functional, Streptococcus pyogenes M1 GAS
The source made the active and inactive calls.
METRIC NAME: EC50

1) COc1ccc(C(=O)CSc2[nH]c(=O)cc(C(F)(F)F)c2C#N)cc1 = 8.62 µM (active)
2) CCc1ccc(/C=C/c2c([N+](=O)[O-])c(=O)n(C)c(=O)n2C)cc1 = > 150 µM (not active)
3) NC(=NNC(=O)c1sccc1OCc1ccc(Cl)cc1Cl)c1ccccn1 = 35.4 µM (active)
4) O=C(c1cc(-c2cccs2)nc2ccccc12)N1CCN(c2ccccc2O)CC1 = 144 µM (active)
5) Cc1ccc(NC(=S)NC(=O)c2ccc(F)cc2)cc1S(=O)(=O)Nc1cccc(Cl)c1 = 11.5 µM (active)
6) Cc1ccc(NC(=S)c2nc3ccccc3[nH]2)c(C)c1 = > 150 µM (not active)
7) CC(C)c1ccc(C(=O)NC(=S)Nc2ccc3[nH]c(=O)[nH]c3c2)cc1 = > 150 µM (not active)
8) Cc1ccc(-c2nc3nc(O)cc(NC(=O)c4cccs4)n3n2)cc1 = > 150 µM (not active)
9) CN1CCN(NC(=O)Nc2cc(Cl)cc(Cl)c2)CC1 = 21.7 µM (active)
10) Cc1sc2ncnc(N3CCC(C(=O)Nc4ccc(Cl)cc4Cl)CC3)c2c1C = 91.7 µM (active)
11) Cc1nc(Nc2nc(-c3ccccc3)cc(=O)[nH]2)nc2ccccc12 = > 150 µM (not active)
12) Cc1ccc(-c2csc(NC(=O)c3ccc([N+](=O)[O-])o3)n2)cc1 = 62.4 µM (active)
13) COc1cc2nc(CSc3nc(-c4ccc(F)cc4)cs3)nc(O)c2cc1OC = > 150 µM (not active)

* * *

# STUDY SYSTEM: UniProt O96028
# Sequence (O96028 whole entry): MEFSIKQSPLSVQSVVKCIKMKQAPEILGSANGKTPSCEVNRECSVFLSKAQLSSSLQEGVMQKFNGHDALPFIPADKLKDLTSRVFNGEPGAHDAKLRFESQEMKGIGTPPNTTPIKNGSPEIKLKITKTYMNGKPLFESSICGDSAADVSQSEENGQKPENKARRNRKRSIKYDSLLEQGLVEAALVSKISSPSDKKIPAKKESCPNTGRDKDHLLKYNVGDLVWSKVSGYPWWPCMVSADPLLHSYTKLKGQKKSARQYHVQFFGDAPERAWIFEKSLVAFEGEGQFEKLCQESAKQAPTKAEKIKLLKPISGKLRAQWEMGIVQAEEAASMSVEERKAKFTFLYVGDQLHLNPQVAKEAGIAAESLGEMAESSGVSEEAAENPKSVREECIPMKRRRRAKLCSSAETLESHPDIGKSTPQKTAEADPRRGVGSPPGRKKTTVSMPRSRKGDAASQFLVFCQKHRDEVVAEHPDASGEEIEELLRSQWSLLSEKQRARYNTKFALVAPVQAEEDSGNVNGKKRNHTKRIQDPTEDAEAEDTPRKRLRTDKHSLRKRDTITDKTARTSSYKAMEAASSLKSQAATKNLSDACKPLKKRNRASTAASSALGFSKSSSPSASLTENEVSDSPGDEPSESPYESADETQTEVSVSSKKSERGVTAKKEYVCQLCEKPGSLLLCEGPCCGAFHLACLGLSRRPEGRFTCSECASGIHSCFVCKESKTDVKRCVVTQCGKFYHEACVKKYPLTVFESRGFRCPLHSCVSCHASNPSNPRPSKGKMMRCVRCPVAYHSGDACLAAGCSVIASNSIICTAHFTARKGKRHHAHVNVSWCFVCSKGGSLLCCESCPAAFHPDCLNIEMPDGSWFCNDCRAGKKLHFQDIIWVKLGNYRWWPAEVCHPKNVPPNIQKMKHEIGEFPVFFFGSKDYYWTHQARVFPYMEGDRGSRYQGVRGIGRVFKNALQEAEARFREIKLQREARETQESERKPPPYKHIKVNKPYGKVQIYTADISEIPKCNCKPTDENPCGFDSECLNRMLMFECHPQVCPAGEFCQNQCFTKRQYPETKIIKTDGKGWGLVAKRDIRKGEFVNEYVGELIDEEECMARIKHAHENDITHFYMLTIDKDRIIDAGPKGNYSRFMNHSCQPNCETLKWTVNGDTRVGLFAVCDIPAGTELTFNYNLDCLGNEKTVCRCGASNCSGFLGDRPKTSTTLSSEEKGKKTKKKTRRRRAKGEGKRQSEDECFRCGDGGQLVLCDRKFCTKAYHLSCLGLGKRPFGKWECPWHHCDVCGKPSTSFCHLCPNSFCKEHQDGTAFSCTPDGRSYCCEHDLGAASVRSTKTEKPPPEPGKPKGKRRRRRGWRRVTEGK
# Type: biochemical
Calls of active or inactive are those of the source.
Outcomes: Yes = active, No = inactive

1) N=C1/C(=C/c2ccc(O)c(O)c2)C(=O)N=C2SC(CC(=O)N3CCCC3)=NN12 = Yes
2) Cc1cc([N+](=O)[O-])cc2c1NC(=O)C2(O)N1CCOCC1 (stereo not given) = Yes
3) CNCc1ccccc1OCc1ccc(F)cc1 = No
4) CNCc1ccc(OCc2ccccc2)c(OC)c1 = No
5) CCN(CC)CCSc1nc2ccccc2c(=S)n1-c1ccccc1 = No

* * *

For UniProt:P08684, measured AC50 is reported for the entries below.
Sequence (P08684 whole entry): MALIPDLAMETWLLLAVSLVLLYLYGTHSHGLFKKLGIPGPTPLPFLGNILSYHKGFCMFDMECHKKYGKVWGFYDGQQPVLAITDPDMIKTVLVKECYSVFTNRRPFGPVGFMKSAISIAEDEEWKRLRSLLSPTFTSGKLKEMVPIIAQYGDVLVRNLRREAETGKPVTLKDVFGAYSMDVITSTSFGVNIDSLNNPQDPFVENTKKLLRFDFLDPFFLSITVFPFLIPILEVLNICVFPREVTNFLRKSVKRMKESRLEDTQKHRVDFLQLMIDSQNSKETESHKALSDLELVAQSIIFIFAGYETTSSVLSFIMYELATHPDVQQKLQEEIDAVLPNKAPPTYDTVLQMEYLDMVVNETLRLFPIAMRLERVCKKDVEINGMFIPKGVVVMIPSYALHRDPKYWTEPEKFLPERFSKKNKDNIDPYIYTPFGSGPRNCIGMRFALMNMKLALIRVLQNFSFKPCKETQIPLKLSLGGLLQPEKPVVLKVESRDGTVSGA
METRIC NAME: AC50

1. CCNc1ncc2nc(-c3cc(F)cc(F)c3)c(=O)n(CCOC)c2n1 = 7.94 µM (inconclusive)
2. CC1=C/C(=N/O)C([C@H]2C=C(C)CC(C)(C)[C@@H]2O)C(C)(C)C1 (some centres not stated) = 5.01 µM (inconclusive)
3. O=C1CC(=O)N(CCc2ccc(F)cc2)C(=O)N1 = 31.6 µM (inconclusive)
4. CCOc1cc(C)ccc1OCc1nnc(SCC(=O)c2cccc([N+](=O)[O-])c2)n1C = 1.41 µM (inconclusive)
5. O=C(NCc1cc(F)cc2c1OCCO2)[C@H]1C[C@@H]1[C@H](NP(=O)(c1ccccc1)c1ccccc1)c1ccccc1 = 3.98 µM (inconclusive)
6. N#Cc1cccc(NC(=O)N2CC3(CCN(C(=O)c4cc(C(F)(F)F)cc(C(F)(F)F)c4)CC3)C2)c1 = 31.6 µM (inconclusive)
7. CO[C@H]1COC(=O)[C@@H](C)COC(=O)[C@@H](COCc2ccccc2)NC(=O)C/C=C\[C@H]1C = 3.98 µM (inconclusive)

* * *

A set of compounds tested on Cytochrome P450 2C9 (Homo sapiens, UniProt P11712), with measured AC50:
METRIC NAME: AC50

1) N#C/C(=C/N1CCOCC1)c1ccccc1 = 28.2 µM (inconclusive)
2) Cc1cccc(/C=N\Nc2cnnc(O)c2Cl)c1 = 28.2 µM (inconclusive)
3) CN(C)c1ncc2ncc(=O)n(Cc3cccs3)c2n1 = 39.8 µM (inconclusive)
4) CCC(C)NCc1ccc(C(=O)OC)o1 (stereo not given) = 0.447 µM (inconclusive)
5) CCc1c(C(=O)NCc2ccc3c(c2)OCO3)[nH]c(C)c1C(C)=O = 10 µM (inconclusive)
6) CN(C)[C@@H]1C(O)=C(C(N)=O)C(=O)[C@]2(O)C(O)=C3C(=O)c4c(O)cccc4[C@@](C)(O)[C@H]3[C@H](O)[C@@H]12 = 5.01 µM (inconclusive)
7) Cc1nnc(NC(=O)CCC(=O)NCc2cccs2)s1 = 31.6 µM (inconclusive)
8) CNC(=O)COC(=O)c1cc2c(C)nn(-c3ccc(F)cc3)c2s1 = 1.12 µM (inconclusive)
9) COc1ccc(-n2nnnc2-c2cn(C)nc2C(F)(F)F)cc1 = 28.2 µM (inconclusive)
10) NC(=O)COc1c(F)cc(SCCNS(=O)(=O)c2ccccc2)cc1F = 31.6 µM (inconclusive)
11) CC(=O)Oc1ccccc1C(=O)Oc1ccccc1C(=O)O [DIPLOSALSALATE] = 15.8 µM (inconclusive)
12) COc1ccc(Nc2ncc3nc(-c4cccs4)c(=O)n(Cc4cccc(OC)c4)c3n2)cc1 = 39.8 µM (inconclusive)
13) Cc1nc2cnc(OCc3ccccc3)nc2n(Cc2ccc(F)cc2)c1=O = 10 µM (inconclusive)
14) O=c1[nH]c2ccccc2/c(=N\S(=O)(=O)c2ccc(Cl)cc2)n1-c1ccccc1 = 0.891 µM (inconclusive)
15) O=c1[nH]c(=S)[nH]c(-c2ccccc2)c1Cc1c(O)ccc2ccccc12 = 7.94 µM (inconclusive)

* * *

# STUDY SYSTEM: Protein skinhead-1 (Caenorhabditis elegans, UniProt P34707)
# Sequence (P34707 whole entry): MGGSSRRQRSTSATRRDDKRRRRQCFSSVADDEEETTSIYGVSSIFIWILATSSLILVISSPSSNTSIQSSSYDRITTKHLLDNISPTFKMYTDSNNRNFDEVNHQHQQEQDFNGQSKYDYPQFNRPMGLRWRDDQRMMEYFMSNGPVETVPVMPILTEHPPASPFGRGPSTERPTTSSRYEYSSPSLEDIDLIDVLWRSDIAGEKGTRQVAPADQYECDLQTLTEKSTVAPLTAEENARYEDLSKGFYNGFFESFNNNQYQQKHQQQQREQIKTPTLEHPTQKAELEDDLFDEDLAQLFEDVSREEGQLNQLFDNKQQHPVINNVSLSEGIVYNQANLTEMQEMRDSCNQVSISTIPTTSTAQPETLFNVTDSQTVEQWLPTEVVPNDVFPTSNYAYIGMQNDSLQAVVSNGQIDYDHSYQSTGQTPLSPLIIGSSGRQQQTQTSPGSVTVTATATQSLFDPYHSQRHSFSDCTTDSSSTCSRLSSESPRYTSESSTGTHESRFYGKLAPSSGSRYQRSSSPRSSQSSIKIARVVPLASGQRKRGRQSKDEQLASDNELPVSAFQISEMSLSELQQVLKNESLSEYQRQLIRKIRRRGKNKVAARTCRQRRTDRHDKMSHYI
# Assay type: functional
Active and inactive are the calls of the source.
Possible outcomes: active, inactive

1) Cc1ccc(CSCC(=O)N2CCOCC2)cc1 = inactive
2) Cc1cc(NS(=O)(=O)c2ccc(NC(=O)c3cc(-c4cccnc4)nc4ccc(Cl)cc34)cc2)no1 = inactive
3) Cc1ccc(S(=O)(=O)N2CC=C(c3c(C)n(C)c4ccccc34)CC2)cc1 = inactive
4) O=C(/C=C/Nc1ccc(F)cc1Br)c1ccccc1 = inactive
5) O=[N+]([O-])c1ccc(Nc2ccccc2)c2nonc12 = active
6) O=C(CCCN1C(=O)/C(=C/c2cccs2)SC1=S)Nc1ccc(O)cc1 = inactive
7) COc1ccc(-c2nn(CC(=O)Nc3ccc(Cl)c(Cl)c3)c(=O)c3ccccc23)cc1 = inactive
8) CN1/C(=C\C(=O)COC(=O)CNC(=O)c2ccc3ccccc3c2)C(C)(C)c2ccccc21 = inactive
9) O=C(NC1CCN(C(=S)Nc2ccc(Cl)cc2)CC1)c1ccco1 = inactive
10) Cc1cc(C)c(OCCOCCN2CCNCC2)c(C)c1 = inactive

* * *

Entries annotated with measured EC50
# STUDY SYSTEM: Protein RecA (Mycobacterium tuberculosis, UniProt P9WHJ3)
# Sequence (P9WHJ3 whole entry): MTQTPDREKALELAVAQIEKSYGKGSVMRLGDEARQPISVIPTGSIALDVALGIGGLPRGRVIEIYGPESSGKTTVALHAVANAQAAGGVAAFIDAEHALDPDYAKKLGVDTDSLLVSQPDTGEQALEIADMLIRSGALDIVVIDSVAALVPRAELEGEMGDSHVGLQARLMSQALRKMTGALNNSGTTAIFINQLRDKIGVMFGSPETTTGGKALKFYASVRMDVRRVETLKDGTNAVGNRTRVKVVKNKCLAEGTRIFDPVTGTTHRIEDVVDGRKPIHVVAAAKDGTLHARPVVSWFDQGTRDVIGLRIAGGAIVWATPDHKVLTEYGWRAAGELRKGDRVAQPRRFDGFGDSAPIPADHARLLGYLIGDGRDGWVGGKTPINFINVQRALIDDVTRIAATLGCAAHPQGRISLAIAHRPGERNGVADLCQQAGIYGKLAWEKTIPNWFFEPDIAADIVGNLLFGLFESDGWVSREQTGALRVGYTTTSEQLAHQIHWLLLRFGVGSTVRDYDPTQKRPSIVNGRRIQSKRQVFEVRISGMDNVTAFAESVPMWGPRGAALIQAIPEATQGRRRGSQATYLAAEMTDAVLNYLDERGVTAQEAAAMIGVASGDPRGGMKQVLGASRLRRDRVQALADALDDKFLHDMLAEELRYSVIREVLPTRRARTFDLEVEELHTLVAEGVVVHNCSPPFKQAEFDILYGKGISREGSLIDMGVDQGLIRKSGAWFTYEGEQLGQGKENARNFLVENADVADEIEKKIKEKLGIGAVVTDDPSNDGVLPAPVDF
# PROTOCOL TEXT: Fluorescence Cell-Free Homogeneous Dose Retest to Identify Inhibitors of RecA-Intein Splicing Activity. [Related pubchem assays (depositor defined):AID2097, AID2223, AID489010, AID492950]
# Type: functional
Activity calls are given as the source filed them.
METRIC NAME: EC50

1) C/C(CC(=O)Nc1ccccn1)=N\NC(=O)Cc1cccc2ccccc12 = 2.73 µM (active)
2) CN1CCc2nc(SCC(=O)Nc3ccc(OC(F)(F)F)cc3)c(C#N)c(-c3cccs3)c2C1 = 2.33 µM (active)
3) N#CC1=C(N)Oc2[nH]nc(-c3cccs3)c2C1c1cccnc1 (configuration not stated) = > 380 µM (inactive)
4) Cc1[nH]n(-c2ccccc2)c(=O)c1C(c1ccccc1[N+](=O)[O-])C(C#N)C#N (configuration not stated) = 7.28 µM (active)
5) C#CCOC(=O)c1ccccc1C(=O)n1nnc2ccccc21 = 8.84 µM (active)
6) O=[N+]([O-])c1cc(S(=O)(=O)C(F)(F)F)ccc1Sc1nc2ccccc2[nH]1 = 0.774 µM (active)
7) O=C(CC[S+]([O-])NCc1ccccc1)NCc1ccccc1 (configuration not stated) = > 380 µM (inactive)
